Reference source for all entries: ChEMBL document CHEMBL3988442

Test system: Leishmania donovani
Experiment: Leishmania intramacrophage assay
Assay type: functional, organism-based
Design: scale not given: in the data most compounds retested in dose-response had high values
Conditions: 30.3 µM; […]
Among all 69,000 compounds or so, about 1,000 (1.4%) showed an effect of 50% or more. The sample holds strong results, similar compounds and a random draw of the others, so the mix is not that of the screen.
Quick reference for Percent Effect among some molecules
Your answer should be a plain number; it is taken to be in %.

Completed entries (count: 5):
> print(dat)
                                   molecule         systemtested  measurementkind  displayunit     val
1  COc1c(C)cnc(CN(C)C2CCOC3(CCOCC3)C2)c1C (centres undefined)  Leishmania donovani   Percent Effect            %   5.753
2        Cc1cc(CCC(=O)N2CC[C@H](O)C2)ccc1Br  Leishmania donovani   Percent Effect            %  -18.41
3    CCc1ccc(NC(=O)c2n[nH]c(-n3cnnc3)n2)cc1  Leishmania donovani   Percent Effect            %  -23.27
4  CSCCC(O)C(=O)N1CCC(OCc2cccnc2)CC1 (centres undefined)  Leishmania donovani   Percent Effect            %  -15.88
5  CC(C)n1cc(N2CC(C(=O)N3CCN(C)CC3)CC2=O)cn1 (centres undefined)  Leishmania donovani   Percent Effect            %   26.64

What value of Percent Effect has been recorded for this entry: CCc1c(C)sc2nc3n(CCN4CCCCC4)nc(SC)n3c(=O)c12 50.52
